For each record, write down the corresponding kon.
# Measured On: RBD-FH, monomeric RBD (332-534) with a FLAG peptide and an 8xHis-tag at the C-terminus (SARS-CoV-2, UniProt P0DTC2 332-534)
The response must be a number in M⁻¹ s⁻¹ with no trailing unit.

Quick check: kon of hcAb 2.20 (Fc fusion, also called 2.20Fc; 2.20 hcAb) heavy: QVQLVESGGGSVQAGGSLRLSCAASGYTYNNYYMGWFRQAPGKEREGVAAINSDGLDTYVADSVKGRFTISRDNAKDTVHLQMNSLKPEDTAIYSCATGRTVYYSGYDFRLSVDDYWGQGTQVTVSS ? 1.09e+06

Quick check: kon of hcAb 1.16 (Fc fusion, also called 1.16Fc) heavy: QVQLVESGGGSVQAGGSLRLSCAASGNTSKRKCVGWFRRAPGKEREGVTLIYTVGGSTVYADSVKGRFTISQDNAKDTVYLQMNSLKPEDSAMYYCAAESWGRQCNLETHRFTFWGQGTQVTVSS ? 1.72e+06

Quick check: kon of hcAb 1.29 (Fc fusion) heavy: QVQLVESGGGSVQAGGSLRLSCAASGYTINTDAVAWFRQAPGKGDERVAVIYTGSGNTNYADSVKGRFTISQDNAKNTVYLQMNSLKPEDTALYYCASGYYGASGYDFNNWGQGTQVTVSS ? 353000

Quick check: kon of hcAb 2.11 (Fc fusion, also called 2.11Fc) heavy: QVQLVESGGGSVQAGGSLRLSCAASGDASNRKCVSWFRRAPGKEREGVALIFPVGSSTAYADSVKGRFTISQDSAKDTVYLQMNNLKPEDSGTYYCAAVSWGGRCNLETQTVTFWGQGTQVTVSS ? 1.82e+06

Quick check: kon of hcAb 2.1 (Fc fusion, also called 2.1Fc) heavy: QVQLVESGGGSVQAGGSLRLSCAAFGATISSAHMGWFRQAPGKEREGVAFRYTDGSSTYYTTSVRGRFTISQDNAKNTVYLQMNSLKPEDTAMYYCASNPSWGRLVGGQYNNWGQGTQITVSS ? 771000

Quick check: kon of hcAb 1.26 (Fc fusion) heavy: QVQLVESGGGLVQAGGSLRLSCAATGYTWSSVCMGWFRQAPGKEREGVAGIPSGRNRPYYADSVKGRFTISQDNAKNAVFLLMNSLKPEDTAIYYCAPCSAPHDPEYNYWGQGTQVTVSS ? 1.76e+06
